System: HepG2 cells
ASSAY INFO: Cytotoxicity assay and overall effect (cell counts by flow cytometry)
Assay type: cell-based, human
CONDITIONS: Homo sapiens; HepG2, sorafenib alone, 72 hours; read-out: IC50 (number of cells, percentage of control)

STRUCTURE SMILES | IC50
CNC(=O)c1cc(Oc2ccc(NC(=O)Nc3ccc(Cl)c(C(F)(F)F)c3)cc2)ccn1 | ~1000 nM
